B1: Twister Ribozyme (parent)
chain: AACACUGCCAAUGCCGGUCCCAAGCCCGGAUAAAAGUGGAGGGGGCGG

variants of: B1; assay: self-cleavage, relative activity (ratio to wild type); higher = more cleavage; co-transcriptional
Outcome Measure: self-cleavage

• G7A G48U = 0.381
• C3G G43C = 0.101
• G7A C8G = 0.153
• G17A C19A = 0.104
• U18G G47U = 0.0478
• C19A U37C = 0.0949
• A11G C14G = 0.133
• C27G G28C = 0.216
• A2U G45U = 0.344
• A11G A34U = 0.913
• C14U G38U = 0.904
• A23U C27U = 0.305
• G41A G48C = 0.535
• U18A C25U = 0.0861
• A35U G43A = 0.25
• A23C G24U = 0.0714
• U12A C21G = 0.122
• C14G G16A = 0.0993
• G17A C26U = 0.923
• C5G U12G = 0.768
• A1U U18C = 0.054
• U12A A23G = 0.768
• A33U A34G = 0.76
• G17U G36C = 0.14
• C3A U6C = 0.0414
• A4U C9G = 0.0806
• U31C A35C = 1.03
• C19U G39U = 0.125
• G38A G42C = 0.247
• U6G C27U = 0.186
• A10G G16A = 1.13
• U6A G29C = 0.335
• A23C C27U = 0.0937
• A30U G39A = 0.614
• C5U C27A = 0.21
• G13U G47A = 0.228
• A10G A11C = 0.801
• C20A G24C = 0.0912
• C14U A40C = 0.256
• A4G A11G = 0.96
